Measured values drawn from the RepoRT retention time repository for this set.

- EXPERIMENTAL_DETAILS: RP, Waters ACQUITY UPLC HSS T3, 150 × 2.1 mm, 1.8 µm, 45 °C, 0.6 mL/min, estimated dead time 0.55 min; A: water + 0.1% formic acid, pH 3; B: acetonitrile + 0.1% formic acid, pH 3; gradient (min/%B) 0/1 0.1/1 10/55 10.15/65 10.30/75 10.45/85 10.60/95 10.70/100 11/100 11.55/100 11.65/1 11.70/1 11.80/1 11.90/1 12/1 12.10/1 12.15/1 12.65/1
- SETUP_CONDITIONS: stereoisomer not certain
Counter-ions that a name gives are not always drawn.
PROPERTY_MEASURED: LC retention time (min)

COMPOUND: O=S(=O)(O)Oc1ccc2[nH]ccc2c1 [5-Hydroxyindole sulfate]
LC retention time / min: 2.81

[a] O=C(O)CNC(=O)Cc1ccccc1
[b] O=C1NS(=O)(=O)c2ccccc21
// returns a or b , whichever has the lower LC retention time Answer with the label corresponding to your selection.
b
